target: human cloned somatostatin receptor 3 (human) (UniProt P32745); experiment: 125I-Tyr11-SRIF-14 displacement
Sequence (P32745 whole entry): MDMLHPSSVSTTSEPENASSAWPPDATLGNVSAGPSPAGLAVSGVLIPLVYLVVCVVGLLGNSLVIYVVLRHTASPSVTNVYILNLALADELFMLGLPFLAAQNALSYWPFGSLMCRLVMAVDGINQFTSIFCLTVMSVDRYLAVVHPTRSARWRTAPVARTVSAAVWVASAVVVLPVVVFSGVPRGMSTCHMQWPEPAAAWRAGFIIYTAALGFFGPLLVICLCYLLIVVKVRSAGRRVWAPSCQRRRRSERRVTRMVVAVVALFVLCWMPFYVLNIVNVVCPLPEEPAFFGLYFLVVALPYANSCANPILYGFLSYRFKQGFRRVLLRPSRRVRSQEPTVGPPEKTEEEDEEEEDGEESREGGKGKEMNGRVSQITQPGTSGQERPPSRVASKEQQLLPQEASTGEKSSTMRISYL
*1 amine or outer side, *2 acyl side, *3 side chain or, on linkers, in order; H or OH if unused. Bridges are numbered along the chain shown (N, C = ends). [ ]: non-standard residue; d: D form. The star is where a group is joined. DOTA = O=C(O)CN1CCN(CC(=O)O)CCN(CC(=O)*)CCN(CC(=O)O)CC1; N(2-mercaptoethyl)Gly = O=C(CN(CCS[*:3])[*:1])[*:2]; Glutaryl = O=C(CCCC(=O)[*:2])[*:1]; Orn = NCCC[C@H](N)C(=O)O; Aoc = NCCCCCCCC(=O)O; CPT = camptothecin
metric_name: % displacement at 1 nM (%)
Just the number in %, nothing appended.

Reference set, count: 5
Reported % displacement at 1 nM for {DOTA}-[dF][Orn]CF[dW]KTF[N(2-mercaptoethyl)Gly]-NH2 (disulfide 3-9) [SEQ ID NO: 21] was 59

Reported % displacement at 1 nM for {DOTA}-[dF]KCY[dW]KTF[N(2-mercaptoethyl)Gly]-NH2 (disulfide 3-9; SMILES C[C@@H](O)[C@@H]1NC(=O)[C@H](CCCCN)NC(=O)[C@@H](Cc2c[nH]c3ccccc23)NC(=O)[C@H](Cc2ccc(O)cc2)NC(=O)[C@@H](NC(=O)[C@H](CCCCN)NC(=O)[C@@H](Cc2ccccc2)NC(=O)CN2CCN(CC(=O)O)CCN(CC(=O)O)CCN(CC(=O)O)CC2)CSSCCN(CC(N)=O)C(=O)[C@H](Cc2ccccc2)NC1=O) [SEQ ID NO: 24] was 66

Reported % displacement at 1 nM for {CPT-Aoc}-[dF]RCF[dW]KTF[N(2-mercaptoethyl)Gly]-NH2 (disulfide 3-9) [SEQ ID NO: 27] was 12

Reported % displacement at 1 nM for {Niraparib-Glutaryl}-[dF]RCF[dW]KTF[N(2-mercaptoethyl)Gly]-NH2 (disulfide 3-9) [SEQ ID NO: 28] was 28

Reported % displacement at 1 nM for {DOTA}-G[dF]RCF[dW]KTF[N(2-mercaptoethyl)Gly]-NH2 (disulfide 4-10; SMILES C[C@@H](O)[C@@H]1NC(=O)[C@H](CCCCN)NC(=O)[C@@H](Cc2c[nH]c3ccccc23)NC(=O)[C@H](Cc2ccccc2)NC(=O)[C@@H](NC(=O)[C@H](CCCNC(=N)N)NC(=O)[C@@H](Cc2ccccc2)NC(=O)CNC(=O)CN2CCN(CC(=O)O)CCN(CC(=O)O)CCN(CC(=O)O)CC2)CSSCCN(CC(N)=O)C(=O)[C@H](Cc2ccccc2)NC1=O) [SEQ ID NO: 11] was 47

Others:
Reported % displacement at 1 nM for {DOTA}-[dF]RCY[dW]KTF[N(2-mercaptoethyl)Gly]-NH2 (disulfide 3-9; SMILES C[C@@H](O)[C@@H]1NC(=O)[C@H](CCCCN)NC(=O)[C@@H](Cc2c[nH]c3ccccc23)NC(=O)[C@H](Cc2ccc(O)cc2)NC(=O)[C@@H](NC(=O)[C@H](CCCNC(=N)N)NC(=O)[C@@H](Cc2ccccc2)NC(=O)CN2CCN(CC(=O)O)CCN(CC(=O)O)CCN(CC(=O)O)CC2)CSSCCN(CC(N)=O)C(=O)[C@H](Cc2ccccc2)NC1=O) [SEQ ID NO: 25] was 65
